Hi there, I'd appreciate the recorded chromatographic logP for every entry that follows.
# Assay Method Text: Determination of log P values by HPLC on reversed-phase column (C18)
# Assay type: physicochemical
# Protocol Conditions: formic acid method, read-out: log P(HCOOH)
The answer should be written as a number, with no unit following it.

Query string: So what's the measured chromatographic logP for this one? Nc1cnn(-c2c(F)cccc2F)c1
Result string: 0.09

Query string: Entry O=C(O)c1cnn(-c2c(F)cccc2F)c1C(F)(F)F please
Result string: 2.1

Query string: Entry Nc1cnn(-c2c(F)cc(F)cc2F)c1C(F)(F)F please
Result string: 2.35

Query string: Entry NNc1c(F)cc(Cl)cc1F [(4-chloro-2,6-difluorophenyl)hydrazine] please
Result string: 0.15

Query string: Entry O=C(Nc1cnn(-c2c(F)cccc2F)c1)c1ccccc1C(F)(F)F [I-1-9] please
Result string: 2.45

Query string: Entry N#Cc1cccc(F)c1-n1cc(NC(=O)c2ccccc2C(F)(F)F)cn1 [I-1-52] please
Result string: 2.37

Query string: Entry Nc1cnn(-c2c(F)cccc2F)c1C(F)(F)F please
Result string: 2.14

Query string: Entry O=C(Nc1cn[nH]c1)c1ccccc1C(F)(F)F please
Result string: 1.21

Query string: Entry CCOC(=O)c1cnn(-c2c(F)cccc2F)c1C(F)(F)F please
Result string: 3.56

Query string: Entry Nc1cnn(-c2c(F)cc(Cl)cc2F)c1Cl please
Result string: 2.08

Query string: Entry Fc1cc(Cl)cc(F)c1-n1cccn1 [1-(4-chloro-2,6-difluorophenyl)pyrazole] please
Result string: 2.36

Query string: Entry O=[N+]([O-])c1cnn(-c2c(F)cc(Cl)cc2F)c1 please
Result string: 2.74

Query string: Entry CC(C)(C)OC(=O)Nc1cnn(-c2c(F)cccc2F)c1C(F)(F)F please
Result string: 3.61

====

# Assay Method Text: Determination of log P values by HPLC on reversed-phase column (C18)
# Type: physicochemical
# Protocol Conditions: neutral, read-out: log P(neutral)
Hi there, I'd appreciate the recorded chromatographic logP for every entry that follows.
The answer should be written as a number, with no unit following it.

Query string: So what's the measured chromatographic logP for this one? Nc1cnn(-c2c(F)cccc2F)c1
Result string: 0.89

Query string: Entry O=[N+]([O-])c1cnn(-c2c(F)cc(Cl)cc2F)c1 please
Result string: 2.72

Query string: Entry N#Cc1cccc(F)c1-n1cc(NC(=O)c2ccccc2C(F)(F)F)cn1 [I-1-52] please
Result string: 2.33

Query string: Entry O=C(O)c1cnn(-c2c(F)cccc2F)c1C(F)(F)F please
Result string: 0.13

Query string: Entry Fc1cc(Cl)cc(F)c1-n1cccn1 [1-(4-chloro-2,6-difluorophenyl)pyrazole] please
Result string: 2.34

Query string: Entry Nc1cnn(-c2c(F)cc(F)cc2F)c1C(F)(F)F please
Result string: 2.35

====

# Assay Method Text: Determination of log P values by HPLC on reversed-phase column (C18)
# Format: physicochemical
# Protocol Conditions: neutral, read-out: log P(neutral)
Observed Property: chromatographic logP
The answer should be written as a number, with no unit following it.

Query string: So what's the measured chromatographic logP for this one? Nc1cnn(-c2c(F)cc(Cl)cc2F)c1Cl
Result string: 2.14

Query string: Entry Nc1cnn(-c2c(F)cccc2F)c1C(F)(F)F please
Result string: 2.13

Query string: Entry CCOC(=O)c1cnn(-c2c(F)cccc2F)c1C(F)(F)F please
Result string: 3.52

Query string: Entry NNc1c(F)cc(Cl)cc1F [(4-chloro-2,6-difluorophenyl)hydrazine] please
Result string: 1.44

Query string: Entry O=C(Nc1cn[nH]c1)c1ccccc1C(F)(F)F please
Result string: 1.22

Query string: Entry O=C(Nc1cnn(-c2c(F)cccc2F)c1)c1ccccc1C(F)(F)F please
Result string: 2.36

Query string: Entry CC(C)(C)OC(=O)Nc1cnn(-c2c(F)cccc2F)c1C(F)(F)F please
Result string: 3.58

Reference source: patent US9815792B2
